Ref: patent US20230028110A1

# target.entity: T1, Vδ1 chain of the γδ TCR on human Vδ1 γδ T cells (human)
# T1 construct: whole, on cells; also called cell surface Vδ1 TCR; Vδ1-positive γδ T cells
# experimental.details: flow cytometry binding to Vδ1 γδ T cells, donor ATS006; column head printed 'IC50', unit nM from the chart axis and FIG. 34D
quantity.measured: EC50

Data request: Recall and state the measured EC50 for 1245_P01_E07 (antibody, IgG1, V domains shown, also called ADT1-7; parental ADT1-7) VH: QVQLVESGGGLVKPGGSLRLSCAASGFTFSDYYMSWIRQAPGKGLEWVSYISSSGSTIYYADSVKGRFTISRDNAKNSLYLQMNSLRAEDTAVYYCARVDYADAFDIWGQGTLVTVSS VL: DIQMTQSPSSLSASVGDRVTIACRAGQSIGTYLNWYQQKPGKAPKLLIYVASSLQSGVPSRFSGSGSGTEFTLTISSLQPEDFATYYCQQSYSTLLTFGRGTKVEIK .
Data returned: > 100 nM
